Field: pIC50. Provide a value for each of the molecules that follow.
subject-of-test: Acetylcholinesterase (Homo sapiens, UniProt P22303)
Sequence (P22303 whole entry): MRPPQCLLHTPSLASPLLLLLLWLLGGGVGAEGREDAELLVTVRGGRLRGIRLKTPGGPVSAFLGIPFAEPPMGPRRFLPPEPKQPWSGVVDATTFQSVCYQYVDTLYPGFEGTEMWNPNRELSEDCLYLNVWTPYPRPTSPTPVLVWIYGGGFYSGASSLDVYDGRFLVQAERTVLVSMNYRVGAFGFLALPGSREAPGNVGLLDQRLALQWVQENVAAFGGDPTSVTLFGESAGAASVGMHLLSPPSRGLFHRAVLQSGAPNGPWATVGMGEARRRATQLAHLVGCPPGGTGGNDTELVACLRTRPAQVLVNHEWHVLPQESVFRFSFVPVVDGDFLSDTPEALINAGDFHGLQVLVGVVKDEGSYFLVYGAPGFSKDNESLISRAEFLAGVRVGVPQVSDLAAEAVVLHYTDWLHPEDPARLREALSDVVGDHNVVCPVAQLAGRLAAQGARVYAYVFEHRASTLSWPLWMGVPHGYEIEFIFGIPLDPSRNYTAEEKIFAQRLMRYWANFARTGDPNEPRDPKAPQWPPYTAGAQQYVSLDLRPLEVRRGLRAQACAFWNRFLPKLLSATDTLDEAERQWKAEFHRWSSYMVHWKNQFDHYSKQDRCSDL
Give bare numbers, as −log10 of the molar value.

{"columns": ["structure-smiles", "pIC50"],
 "data": [
  ["CCCCCCCCCCNCC(=O)Nc1ccc2nc3n(c(=O)c2c1)CCC3", 7.62],
  ["N#Cc1ccccc1CNCC(=O)Nc1ccc2nc3n(c(=O)c2c1)CCC3", 7.77],
  ["O=C(CNCc1ccccc1)Nc1ccc2nc3n(c(=O)c2c1)CCC3", 6.64]
]}

Would you mind listing pIC50 for each of the following molecules?
1. CCCCCCCCCCCCNCC(=O)Nc1ccc2nc3n(c(=O)c2c1)CCC3
2. CCCCCCCCNCC(=O)Nc1ccc2nc3n(c(=O)c2c1)CCC3
3. Cc1ccccc1CNCC(=O)Nc1ccc2nc3n(c(=O)c2c1)CCC3
4. O=C(CNCc1ccccc1F)Nc1ccc2nc3n(c(=O)c2c1)CCC3
5. O=C(CNCCCc1ccccc1)Nc1ccc2nc3n(c(=O)c2c1)CCC3
6. O=C(CNCc1ccccc1[N+](=O)[O-])Nc1ccc2nc3n(c(=O)c2c1)CCC3

[7.44, 7.97, 6.92, 6.28, 8.39, 7.51]

Would you mind listing pIC50 for each of the following molecules?
1. C=CCNCC(=O)Nc1ccc2nc3n(c(=O)c2c1)CCC3
2. CC(C)=CCNCC(=O)Nc1ccc2nc3n(c(=O)c2c1)CCC3
3. CCCCCCNCC(=O)Nc1ccc2nc3n(c(=O)c2c1)CCC3
4. C=CCCNCC(=O)Nc1ccc2nc3n(c(=O)c2c1)CCC3
5. CCNCC(=O)Nc1ccc2nc3n(c(=O)c2c1)CCC3
6. C#CCNCC(=O)Nc1ccc2nc3n(c(=O)c2c1)CCC3

1: 7.18; 2: 7.59; 3: 7.60; 4: 7.88; 5: 6.25; 6: 7.33

Would you mind listing pIC50 for each of the following molecules?
1. CCCCCCCCCCCCCCCCNCC(=O)Nc1ccc2nc3n(c(=O)c2c1)CCC3
2. CCCCNCC(=O)Nc1ccc2nc3n(c(=O)c2c1)CCC3
3. O=C(CNCc1cc(F)cc(F)c1)Nc1ccc2nc3n(c(=O)c2c1)CCC3
4. CCCNCC(=O)Nc1ccc2nc3n(c(=O)c2c1)CCC3
5. O=c1c2ccccc2nc2n1CCC2

8.27
7.67
8.12
6.51
4.20
